Exercise: for every item that follows, state its recorded ELISA [abs. corr.].
# system: T1, CD27 protein (His-tagged, Sino Biological Inc. 10039-H08B1) (human, UniProt P26842 20-192)
# T1 construct: bought; coated onto ELISA plates; also called human CD27; recombinant protein; not shown: His tag
# T1 sequence (looked up): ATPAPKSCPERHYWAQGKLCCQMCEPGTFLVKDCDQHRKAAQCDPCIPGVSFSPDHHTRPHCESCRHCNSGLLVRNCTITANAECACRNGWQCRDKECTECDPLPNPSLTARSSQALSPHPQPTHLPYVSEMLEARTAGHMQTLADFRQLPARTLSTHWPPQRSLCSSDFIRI
# experimental.details: ELISA on coated His-tagged CD27; note: test concentration or dose not given here
Numbers only, in abs. corr..

Worked set:
binder: P018.S.04.A.B03 (antibody, V domains shown, V regions on human Ig constant parts; also called AB27_67) VH: QSLEESGGRLVTPGTPLTLTCTASGFSLSSYDMSWVRQAPGKGLEWIGYIWSDGDTDYANWAIGRFTISKTSTTVDLKMTSPTTEDTATYFCARGYTNYDLWGQGTLVTVSS VL: AAVLTQTPSSVSAAVGGTVTISCQSSQSLYSDPYLSWHQQKPGQPPKRLIYQASTLASGVSSRFKGSGSGTEYTLTISDVQSDDAATYFCQGTYYSDGWYSDFGGGTEVVVK
reported.metric: ELISA [abs. corr.]
observed.result: 3.28
--
binder: P018.S.02.A.F06 (antibody, V domains shown, V regions on human Ig constant parts; also called AB27_36) VH: QSVEESGGRLVTPGTPLTLTCTVSGFSLSSYVMSWVRQAPGKGLEWIGYIDYGGTPYYASWAKGRFTISKTSTTVELKITSPTIEDTATYFCARGGYGGYILVTGLWGPGTLVTVSS VL: DVVMTQTPASVSEPVGGTVTIKCQASQSISSYCSWYQQRPGQPPKLLIYGASTLASGVPSRFKGSGSGTEYTLTISDLESADAATYYCQTYYGGGPFGNGFGGGTEVVVK
reported.metric: ELISA [abs. corr.]
observed.result: 3.24

Continue with the next binder.
Complete the entry with ELISA [abs. corr.] for P018.S.02.A.B05 (antibody, V domains shown, V regions on human Ig constant parts; also called AB27_31) VH: QEQLVESGGGLVQPEGSLTLTCKASGFDFSSSYYMSWVRQAPGKGLEWIACIDTADGYTYYASWAKGRFTISKTSSTTVSLQMTSLTAADTATYFCARERIAYNTDYFNLWGPGTLVTVSS VL: AQVLTQTPSPVSAAVGGTVTISCQSSQSLYNYNNLAWYQQKPGQPPKLLIYSVSNLASGVPSRFGGSGSGTQFTLTISDLQSDDAATYYCQGYYSGAVYTFGGGTEVVVK
3.48
